# IC50, inhibition of cynomolgus lectin complement pathway (Wieslab assay) per entry
Target: T1, cynomolgus monkey C2 (cynomolgus monkey, UniProt G8F3W0 21-752)
T1 sequence: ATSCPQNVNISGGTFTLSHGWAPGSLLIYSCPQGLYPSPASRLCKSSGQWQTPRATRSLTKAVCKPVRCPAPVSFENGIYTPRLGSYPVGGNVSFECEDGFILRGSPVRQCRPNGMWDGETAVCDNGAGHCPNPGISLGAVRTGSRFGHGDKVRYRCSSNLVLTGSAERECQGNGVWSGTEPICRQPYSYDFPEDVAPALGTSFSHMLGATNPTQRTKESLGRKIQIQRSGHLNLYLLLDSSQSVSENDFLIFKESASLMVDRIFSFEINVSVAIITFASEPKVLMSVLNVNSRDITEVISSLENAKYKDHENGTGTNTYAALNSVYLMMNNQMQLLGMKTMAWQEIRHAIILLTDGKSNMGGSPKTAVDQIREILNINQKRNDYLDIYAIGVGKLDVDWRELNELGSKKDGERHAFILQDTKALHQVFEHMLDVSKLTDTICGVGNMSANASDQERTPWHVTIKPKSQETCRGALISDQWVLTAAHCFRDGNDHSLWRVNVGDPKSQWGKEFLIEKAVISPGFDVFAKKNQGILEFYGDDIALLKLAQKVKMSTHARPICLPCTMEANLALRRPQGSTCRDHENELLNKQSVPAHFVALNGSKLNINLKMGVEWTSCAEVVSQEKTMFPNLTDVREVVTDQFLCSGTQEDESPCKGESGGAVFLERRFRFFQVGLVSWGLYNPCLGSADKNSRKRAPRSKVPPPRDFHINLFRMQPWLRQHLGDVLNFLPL
Assay: cell-based or functional assay
Report only the number, with the unit nM understood.

binder="RF16-242 (antibody, V domains shown) VH: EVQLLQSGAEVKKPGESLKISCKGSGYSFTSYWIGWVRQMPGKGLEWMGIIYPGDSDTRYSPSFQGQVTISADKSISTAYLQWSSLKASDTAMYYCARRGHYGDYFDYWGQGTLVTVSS VL: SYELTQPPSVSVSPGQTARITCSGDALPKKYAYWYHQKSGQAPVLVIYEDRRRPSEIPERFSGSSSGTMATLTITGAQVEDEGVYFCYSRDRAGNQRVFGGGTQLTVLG" meas_value=91.1

Challenge: Please indicate IC50, inhibition of cynomolgus lectin complement pathway (Wieslab assay) recorded for RF16-191G (antibody, V domains shown) VH: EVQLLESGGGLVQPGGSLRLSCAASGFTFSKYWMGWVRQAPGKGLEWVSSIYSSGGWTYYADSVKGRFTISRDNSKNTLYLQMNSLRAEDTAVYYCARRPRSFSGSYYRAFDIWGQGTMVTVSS VL: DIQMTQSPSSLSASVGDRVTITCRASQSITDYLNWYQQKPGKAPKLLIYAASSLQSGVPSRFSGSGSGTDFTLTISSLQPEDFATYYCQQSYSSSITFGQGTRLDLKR
Response given: 42.9
